Reference source: PubChem BioAssay AID1324

MEASURED_TARGET: glutathione S-transferase (GST-GSH binding)
ASSAY_METHOD_TEXT: GST–glutathione interaction disruption – biochemical, multiplex beads, flow cytometry, HPSMTB buffer, profiling panel (AID 1324); call rule not given here;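 also: glutathione beads loaded with GST-green fluorescent protein and no fluorescent Bim peptide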
MEASUREMENT_SETUP: multiplex bead flow cytometry, MCF
Pick one and only one: class 1 for active, class 0 for inactive

*Q* Dear colleague, could you share the recorded outcome for O=C(Nc1ccc2nc(-c3ccco3)c(-c3ccco3)nc2c1)NC1CC1 when you have a moment?
*A* class 1

----------
MEASURED_TARGET: glutathione S-transferase (GST-GSH binding)
ASSAY_METHOD_TEXT: GST–glutathione interaction disruption – biochemical, multiplex beads, flow cytometry, HPSMTB buffer, profiling panel (AID 1324);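 also: glutathione beads loaded with GST-green fluorescent protein and no fluorescent Bim peptide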
MEASUREMENT_SETUP: multiplex bead flow cytometry, MCF, hits give high values, concentration not given here
Active and inactive are the calls of the source. The rule behind the calls is not given here.
QUANTITY: percent span inhibition

Worked cases, percent span inhibition given:
MOLECULE | percent span inhibition
Cc1ccnc(NS(=O)(=O)c2ccc(NS(=O)(=O)c3cccs3)cc2)n1 | inactive
C#CCOCCOCCOCCNc1nc(N2CCN(C(=O)[C@H](CCCCN)n3cc(CCCC)nn3)CC2)nc(N2CCN(C(=O)[C@H](Cc3ccc(O)cc3)n3cc(CCO)nn3)CC2)n1 | inactive
O=C(CCl)Nc1cccc2ncccc12 | inactive
CC(C(=O)Nc1cc([N+](=O)[O-])ccc1Cl)N1CCN(c2ccc(O)cc2)CC1 (centres undefined) | inactive
S=C(Nc1ccccc1)N1CCn2cccc2C1c1cccnc1 (centres undefined) | inactive

Then this molecule:
Record COc1ccc(OC)c(Nc2ccc(C(=O)O)cc2[N+](=O)[O-])c1 has glutathione S-transferase (GST-GSH binding) percent span inhibition equal to inactive
